- TESTED_SYSTEM: CD137 (UniProt Q07011 24-255, limits assumed)
- Sequence (Q07011 24-255 limits assumed): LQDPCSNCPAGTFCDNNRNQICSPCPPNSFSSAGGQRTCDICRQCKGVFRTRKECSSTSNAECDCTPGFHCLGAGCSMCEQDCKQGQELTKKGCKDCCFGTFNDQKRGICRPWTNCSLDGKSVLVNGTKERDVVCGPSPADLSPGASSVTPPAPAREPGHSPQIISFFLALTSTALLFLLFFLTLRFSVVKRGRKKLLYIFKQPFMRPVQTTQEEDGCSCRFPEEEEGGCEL
- METHOD_SUMMARY: cell-based or functional assay
*1 amine or outer side, *2 acyl side, *3 side chain or, on linkers, in order; H or OH if unused. Bridges are numbered along the chain shown (N, C = ends). Roman numbers before positions name the chains, in order. Where no end group is shown, it is not given here. [ ]: non-standard residue; d: D form. The star is where a group is joined. TATA = O=C(CC[*:1])N1CN(C(=O)CC[*:2])CN(C(=O)CC[*:3])C1; 1Nal = N[C@@H](Cc1cccc2ccccc12)C(=O)O; Hyp = O=C(O)[C@@H]1C[C@@H](O)CN1; hArg = N=C(N)NCCCC[C@H](N)C(=O)O; tBuAla = CC(C)(C)C[C@H](N)C(=O)O; Cysteamide = C(CS[*:3])N[*:1]; Nle = CCCC[C@H](N)C(=O)O; Pent4ynoyl = C#CCCC(=O)*; dNMeA = CN[C@H](C)C(=O)O; βAla = NCCC(=O)O; Mpa = O=C(O)CCS
# Fold improvement in EC50 over BCY10000 on same plate listing for each entry below
PROPERTY_NAME: Fold improvement in EC50 over BCY10000 on same plate (fold)

[
  {
    "BINDER": "BCY12377 ([Ac]C[tBuAla]EE[dK(PYA)]PYCFADPY[Nle]C; Cys residues bonded to TATA scaffold; CP[1Nal][dD]CM[HArg]DWSTP[HyP]WC; Cys residues bonded to TATA scaffold) peptide 1: CPXDCMXDWSTPXWC peptide 2: CXEEKPYCFADPYXC",
    "UNIT_SYMBOL": "fold",
    "TEST_VALUE": 0.78
  },
  {
    "BINDER": "BCY11618 (linker I:2-I:6-I:16, II:1-II:8-II:15 via TATA; linker II:N-II:5 via Peg5; not fully specified (some residues); also: palmitic acid on dK of chain 1) peptide 1: Pent4ynoyl-[βAla]CP[1Nal][dK]CM[hArg]DWSTP[Hyp]WC peptide 2: Ac-C[tBuAla]PE[dK]PYCFADPY[Nle]CA",
    "UNIT_SYMBOL": "fold",
    "TEST_VALUE": 0.09
  },
  {
    "BINDER": "BCY12572 ([Ac]C[tBuAla]PE[dK(PYA)]PYCFADPY[Nle][Cysteamine]; reactive groups bonded to TATA scaffold; CP[1Nal][dD]CM[HArg]DWSTP[HyP]WC; Cys residues bonded to TATA scaffold) peptide 1: CPXDCMXDWSTPXWC peptide 2: CXPEKPYCFADPYX",
    "UNIT_SYMBOL": "fold",
    "TEST_VALUE": 0.35
  },
  {
    "BINDER": "BCY12576 (Ac-C[tBuAla]PE[D-Lys(PYA)]PYCFADPY[Nle]CA; Cys residues bonded to TATA scaffold; [3-mercaptopropionic acid]P[1Nal][dK]CM[HArg]DWSTP[HyP]WC; reactive groups bonded to TATA scaffold) peptide 1: XXKCMXDWSTPXWC peptide 2: CXPEXPYCFADPYXCA",
    "UNIT_SYMBOL": "fold",
    "TEST_VALUE": 0.23
  },
  {
    "BINDER": "BCY12583 (linker I:1-I:5-I:15, II:1-II:8-II:15 via TATA; not fully specified (bridges); printed as CP[1Nal][dE]CL[HArg]DWSTP[HyP]WC / Ac-C[tBuAla]PE[D-Lys(PYA)]PYCFADPY[Nle]CA; also: chain 1 N-terminus joined to chain 2 dLys(PYA) by Peg5 linker (heterotandem complex)) peptide 1: CP[1Nal][dE]CL[hArg]DWSTP[Hyp]WC peptide 2: Ac-C[tBuAla]PE[dK](Pent4ynoyl)PYCFADPY[Nle]CA",
    "UNIT_SYMBOL": "fold",
    "TEST_VALUE": 0.6
  },
  {
    "BINDER": "BCY12710 (linker I:1-I:5-I:15, II:1-II:8-II:15 via TATA; not fully specified (bridges); also: chain 1 N-terminus joined to chain 2 dLys(PYA) by Peg5 linker (heterotandem complex)) peptide 1: CP[1Nal][dD]CM[hArg]DWSTP[Hyp]WC peptide 2: Ac-C[tBuAla]PE[dK](Pent4ynoyl)PYCFAD[dNMeA]Y[Nle]C",
    "UNIT_SYMBOL": "fold",
    "TEST_VALUE": 0.16
  },
  {
    "BINDER": "BCY12580 (Ac-C[tBuAla]PE[D-Lys(PYA)]PYCFADPY[Nle]CA; Cys residues bonded to TATA scaffold; [Ac]CP[1Nal][dK]CM[HArg]EWSTP[HyP]WC; Cys residues bonded to TATA scaffold) peptide 1: CPXKCMXEWSTPXWC peptide 2: CXPEXPYCFADPYXCA",
    "UNIT_SYMBOL": "fold",
    "TEST_VALUE": 0.64
  },
  {
    "BINDER": "BCY12574 (linker I:1-I:5-I:15 via TATA; numbers in words are those of the source; also: two bicycles joined by Peg5 linker, linker at chain B 7 to a chain's N/C-terminus via TATA) peptide 1: CP[1Nal][dD]CM[hArg]DWSTP[Hyp]WC peptide 2: [Mpa][tBuAla]PE[dK](Pent4ynoyl)PYCFADPY[Nle]-Cysteamide",
    "UNIT_SYMBOL": "fold",
    "TEST_VALUE": 0.22
  }
]
